assay-summary: DUSP6 inhibitors restoring Erk phosphorylation by chemical complementation, primary imaging in DUSP6-transfected HeLa (AID 609)
condition-summary: HeLa MKP-3 transfected, phospho-Erk imaging KS statistic; measured here: nuclear c-Myc green intensity z-score; at 10 µM; cells stimulated with TPA for 15 min
property-label: z-score

> print(dat)
                                    molecule  property.label  observed.result
 1       Cc1cc(C)n(C(=O)CNC(=O)CCc2ccccc2)n1         z-score           -0.553
 2  C=CCOC(=O)C1=C(C)OC(N)=C(C#N)C1c1ccoc1 (centres undefined)         z-score           -0.099
 3  COc1ccc(OC)c(C2C(C(=O)c3ccco3)=C(O)C(=O)N2CCCN2CCOCC2)c1 (centres undefined)         z-score            0.589
 4  Cn1c(=O)c2c(nc(OCc3cccnc3)n2Cc2ccccc2)n(C)c1=O         z-score           -0.258
 5  NC(CO)C(=O)NNCc1ccc(O)c(O)c1O (centres undefined)         z-score            0.175
 6  CC(C)C1=C2OC(N)=C(C#N)C(C#N)=C2C(C)CC1 (centres undefined)         z-score            0.379
 7  COc1ccc(/C(O)=C2/C(=O)C(=O)N(CCCN(C)C)C2c2cccc(Cl)c2)cc1OC (centres undefined)         z-score            0.328
 8             C=CCSc1nc(C)c(CC=C)c(=O)[nH]1         z-score            -0.59
 9                         O=C(O)CCCc1ccccc1         z-score            -1.18
10      COc1ccc(C(=O)/C=C/Nc2cccc(C)n2)cc1OC         z-score            0.461
11      Cc1nc(N2CCOCC2)c(C#N)c2c1COC(C)(C)C2         z-score                1
12  CCCOc1ccc(/C(O)=C2/C(=O)C(=O)N(CCCn3ccnc3)C2c2cccs2)cc1 (centres undefined)         z-score           -0.103
13              Cc1cc(OCCN2CCOCC2)nc2ccccc12         z-score            -1.97
14                     Cc1cc(C)nc(CC(N)=O)n1         z-score           0.0631
15  CN1CCc2c(sc3c2C(=O)NC(c2ccco2)N3)C1 (centres undefined)         z-score           -0.484
16  N=c1ncn(CC(O)CN2CCOCC2)c2nc(N3CCOCC3)[nH]c12 (centres undefined)         z-score            -1.17
17            Cc1[nH]c2ccc3c(ncn3CCC#N)c2c1C         z-score            0.347
18  COc1ccc(OC)c(C2/C(=C(\O)c3ccc4c(c3)OCCO4)C(=O)C(=O)N2CCCN(C)C)c1 (centres undefined)         z-score            0.819
19  CCOC(=O)c1sc2c(c1C)c(=O)c(C(=O)OCC)cn2CC         z-score           -0.225
20                      COC(=O)CC1=NC(=O)CS1         z-score            0.428
21  CCCCOc1ccc(C(=O)Nc2ccc(N3CCN(C(C)=O)CC3)cc2)cc1         z-score            -2.16
22                         C#CCN(C)Cc1ccccc1         z-score           -0.921
23  CCCCOC(=O)CSC1=C(C#N)C(c2ccccc2OC)C(C#N)C(=O)N1 (centres undefined)         z-score            0.338
24  CCOc1ccc(S(=O)(=O)N(C)C)cc1-c1nc2c(C(C)(C)C)nn(C)c2c(=O)[nH]1         z-score            0.134
25              COc1ccccc1Nc1ncc(-c2cccs2)s1         z-score            -1.21
26  CC(Sc1nc(N2CCCCC2)c2c(c1C#N)CCCC2)C(=O)O (centres undefined)         z-score            0.635
27  CCN(CC)CCCC1(CN)OCCc2ccccc21 (centres undefined)         z-score           0.0892
28        Cc1ccc(-c2nnc(-c3cccc(Br)c3)o2)cc1         z-score            0.261
29  CCOC(=O)c1[nH]c2ccc(OC)cc2c1NC(=O)CCN1CCC(C)CC1         z-score           -0.288
30  CC1(C)Cc2c(c(-c3ccccc3)[nH]c(=O)c2C#N)CS1         z-score            -1.74
31               CCCC(=O)Nc1sc2c(c1C#N)CCCC2         z-score            0.756
32  CC(C)Cn1cnc2c(c1=O)c1nc3ccccc3nc1n2Cc1ccc2c(c1)OCO2         z-score           -0.729
33  CCN(CC)CCCN1C(=O)C(O)=C(C(=O)c2ccc(C)o2)C1c1ccc(C)o1 (centres undefined)         z-score            0.341
34  Cc1[nH]nc2c1C(CCc1ccccc1)C(C#N)=C(N)O2 (centres undefined)         z-score            -1.48
35  CC1=C(c2ccc(Cl)cc2)[N+](=O)C(C)(C)N1[O-]         z-score            -1.84
36  COc1cccc(/C(O)=C2\C(=O)C(=O)N(c3ccccn3)C2c2ccccc2OC)c1 (centres undefined)         z-score            0.206
37  COC(=O)CSc1nc2sc3c(c2c(=O)n1C1CCCCC1)CCN(C)C3         z-score           -0.963
38     COc1cccc(OC)c1-c1nn2c(-c3ccco3)nnc2s1         z-score            0.886
39  CCCCOc1ccc(C(=O)OC2CC(C)N(C)CC2C)cc1 (centres undefined)         z-score             -1.1
